Numbers sourced from the supplement of paper PMC9732359.

Test: protein stability index of a GFP-peptide fusion (yeast GPS) (PSI 1-4); higher = more stable; sorted into four equal gates, so the index is relative within each strain
Settings: san1∆
result.type: protein stability index
One number for each entry.

Check out these entries, answers already filled in.
> print(dat)
                           sequence  measured.value
1          STSYHLNSTLESLYDLI [MED6]               3
2  PLASEESLTNSNMFDNS [YGL100W/SEH1]            3.07

Proceeding to the next sequence to report its protein stability index.
Q) Output protein stability index of AAVVKTSSRQTVFLPMV [RPT5]
A) 2.97

###

Test: protein stability index of a GFP-peptide fusion (yeast GPS) (PSI 1-4); higher = more stable; sorted into four equal gates, so the index is relative within each strain
Settings: ubr1∆
Classification field: enter T for protein stability index values not below 3, F for values below it.

Q) Hi, just wondering whether QQRIREIGLLPEDALVN [SMC3] shows protein stability index of 3 or higher.
A) T

Q) Check if protein stability index >= 3 (inclusive). Item: VLTNIEVYRTSLNTKKN [SMC3]
A) F

Q) Would you say KIINKPNELSQILTVDP [RPC82] shows protein stability index at minimum 3?
A) F

Q) API: above_or_equal(metric=protein stability index, cutoff=3) for item HICGICGLMTVIAKLNH [RPB2]
A) F

Q) hey, is protein stability index for this one >= 3? FKGVIVKIVDKDGIRQV [PRE1]
A) T

Q) Is reported protein stability index greater than or equal to 3 here: SSVTSDSMKYTISSLFV [RPC82]
A) F

Q) I'd appreciate it if you could say whether NKTLTFETETEVTFKNA [FAS1] has protein stability index at least equal to 3.
A) T

Q) Does ELFKDYKPGSITLENIT [MED1] have a reported protein stability index of at least 3?
A) F

Q) Exam item: decide whether the reported protein stability index for LAQTLKLWRKIARLYSC [RRI2] is at least 3.
A) F

Q) # check: protein stability index of KKACIIFFDEIDAVGGA [RPT1] is greater than or equal to 3
A) F

Q) Does GQLLKDHLIIEPEEEKS [ARP9] have a reported protein stability index of at least 3?
A) F

Q) Given the entry KDDMKVDDAIELALKTL [PRE9] , answer whether its protein stability index meets or surpasses 3.
A) T

Q) Determine whether measured protein stability index meets or exceeds 3 for AYGNWFNGLKPLIQNSM [PRP8]
A) T

Q) Textbook exercise: given the entry RRILPKPSRTSRQVQKR [RPS7A] , state whether its protein stability index is greater than or equal to 3.
A) T

Q) Kindly determine if protein stability index recorded for MDSIIPAGVKLDDLQVI [PGD1] is above or exactly 3.
A) F

Q) Confirm if protein stability index reported for the sequence VAALALLFAINSYQPSP [SMC1] is 3 or above.
A) F

Q) I'd appreciate it if you could say whether MTNLTYFLHLSVFNAEL [YCS4] has protein stability index at least equal to 3.
A) F

Q) Is it the case that VNASVDVDQHGNDNNSD [SWI3] has protein stability index reaching or exceeding 3?
A) T

Q) Would you say LANWFLEVYASGNPNAT [YML031W/NDC1] shows protein stability index at minimum 3?
A) F

Q) Textbook exercise: given the entry RIYDREPTVRIQAVFCL [YCG1] , state whether its protein stability index is greater than or equal to 3.
A) F

Q) Reported protein stability index reaches at least 3 for VEKGTPLGKILLKGDNI [SME1] ?
A) T

Q) Does the reported protein stability index for VGDFLLQYANNAVISHA [SIN4] fall at or above the 3 mark?
A) F

Q) Does protein stability index meet or surpass 3 for AAPLLALLRENQDSVKT [RPN2] ?
A) F
